target: Vascular endothelial growth factor receptor 1 (Homo sapiens, UniProt P17948)
measurementNotes: Inhibition of recombinant VEGFR1 (unknown origin) incubated for 60 mins by ELISA analysis
measurementLabel: pIC50
Lab note — pIC50 values are minus log10 of concentrations in M.

Fill: pIC50 (Vascular endothelial growth factor receptor 1 (Homo sapiens, UniProt P17948)) for this compound CNC(=O)c1cccc2cc(Oc3ccnc(NC(=O)c4ccc(N5CCN(CCO)CC5)cc4)c3)ccc12 8.25

---

target: Fibroblast growth factor receptor 1 (Homo sapiens, UniProt P11362)
measurementNotes: Inhibition of recombinant FGFR1 (unknown origin) in the presence of [p33]-ATP
measurementLabel: IC50 (nM)
Just the number please, in nM, no unit attached.

Identify measured IC50 corresponding to Cn1cc(-c2ccc3c(c2)ncn3-c2cc(NS(=O)(=O)C3CC3)cc(-c3ccc(F)cc3F)c2)cn1 11

---

target: Fibroblast growth factor receptor 3 (Homo sapiens)
measurementNotes: Inhibition of recombinant FGFR3 (unknown origin) in the presence of [p33]-ATP
measurementLabel: pIC50
Units for pIC50: none; it is -log10 of a concentration expressed in mol/L.

Please give measured pIC50 of the following entry: Cn1cc(-c2ccc3c(c2)ncn3-c2cc(NS(=O)(=O)C3CC3)cc(-c3ccc(F)cc3F)c2)cn1 8.22

---

target: UniProtKB P09619
Sequence (P09619 whole entry, the tested form may be a part): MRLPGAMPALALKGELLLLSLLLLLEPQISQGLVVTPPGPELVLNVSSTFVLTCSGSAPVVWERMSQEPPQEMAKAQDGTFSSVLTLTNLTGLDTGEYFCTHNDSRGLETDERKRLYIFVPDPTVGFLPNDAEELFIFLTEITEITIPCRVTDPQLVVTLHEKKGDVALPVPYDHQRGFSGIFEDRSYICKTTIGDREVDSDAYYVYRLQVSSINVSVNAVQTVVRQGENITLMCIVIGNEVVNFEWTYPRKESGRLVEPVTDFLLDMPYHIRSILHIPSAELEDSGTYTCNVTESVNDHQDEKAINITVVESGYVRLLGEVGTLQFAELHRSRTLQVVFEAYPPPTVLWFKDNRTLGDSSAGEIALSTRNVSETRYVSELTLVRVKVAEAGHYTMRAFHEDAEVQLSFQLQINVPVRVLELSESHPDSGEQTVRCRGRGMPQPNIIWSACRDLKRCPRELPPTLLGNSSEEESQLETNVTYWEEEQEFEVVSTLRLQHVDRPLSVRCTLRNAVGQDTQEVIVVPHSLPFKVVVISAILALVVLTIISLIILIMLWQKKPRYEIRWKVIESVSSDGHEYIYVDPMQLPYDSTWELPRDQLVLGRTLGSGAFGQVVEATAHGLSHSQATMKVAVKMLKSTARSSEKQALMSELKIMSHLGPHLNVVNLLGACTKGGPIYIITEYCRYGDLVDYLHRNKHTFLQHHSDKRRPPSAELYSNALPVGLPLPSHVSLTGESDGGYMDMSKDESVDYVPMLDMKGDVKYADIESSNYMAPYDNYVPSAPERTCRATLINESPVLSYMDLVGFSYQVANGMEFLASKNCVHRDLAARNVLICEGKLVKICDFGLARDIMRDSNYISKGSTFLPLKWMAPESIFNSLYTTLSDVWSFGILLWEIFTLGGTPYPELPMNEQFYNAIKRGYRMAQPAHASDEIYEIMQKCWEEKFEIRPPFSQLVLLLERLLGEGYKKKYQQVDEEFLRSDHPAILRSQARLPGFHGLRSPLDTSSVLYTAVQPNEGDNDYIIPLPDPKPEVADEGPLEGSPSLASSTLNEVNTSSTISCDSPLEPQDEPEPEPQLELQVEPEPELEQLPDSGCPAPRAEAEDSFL
measurementNotes: Inhibition of N-terminal 6-His tagged recombinant PDGFRbeta Kinase domain (unknown origin) expressed in baculovirus expression system incubated for 30 mins in the presence of [33p]-ATP by scintillation counting analysis
measurementLabel: IC50 (µM)
The response must be a number in µM with no trailing unit.

Give the value of IC50 reported for the following: O=C(O)CCc1c(/C=C2\C(=O)Nc3ccc(F)cc32)[nH]c2c1C(=O)CCC2 0.042

---

target: Fibroblast growth factor receptor substrate 2 (Homo sapiens)
Sequence (Q8WU20 whole entry): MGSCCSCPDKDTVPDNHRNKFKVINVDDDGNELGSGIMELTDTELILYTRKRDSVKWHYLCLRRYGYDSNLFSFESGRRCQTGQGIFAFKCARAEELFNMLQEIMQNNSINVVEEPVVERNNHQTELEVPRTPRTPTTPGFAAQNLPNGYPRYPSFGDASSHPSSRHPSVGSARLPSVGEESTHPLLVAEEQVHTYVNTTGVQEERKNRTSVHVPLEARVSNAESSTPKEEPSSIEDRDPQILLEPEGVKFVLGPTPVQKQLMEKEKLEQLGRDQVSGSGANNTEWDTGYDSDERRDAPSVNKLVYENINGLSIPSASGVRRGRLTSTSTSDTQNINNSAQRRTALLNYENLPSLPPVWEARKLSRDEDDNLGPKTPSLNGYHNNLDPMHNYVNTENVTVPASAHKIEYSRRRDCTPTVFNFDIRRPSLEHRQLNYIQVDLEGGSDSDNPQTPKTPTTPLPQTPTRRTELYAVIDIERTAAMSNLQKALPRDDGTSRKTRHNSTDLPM
measurementNotes: Inhibition of FRS2 phosphorylation at Tyr196 residue in human RT-4 cells incubated for 20 mins by electrochemiluminescence method
Assay type: cell-based
measurementLabel: pIC50
# pIC50 is unitless: minus log10 of the molar concentration; print number only

Supply reported pIC50 belonging to this compound: Cn1cc(-c2ccc3c(c2)ncn3-c2cc(NS(=O)(=O)C3CC3)cc(-c3ccc(F)cc3F)c2)cn1 7.05

---

target: UniProt:P11362
measurementNotes: Inhibition of FGFR1 (unknown origin) by Z'-LYTE Kinase assay
measurementLabel: pIC50
pIC50 is a log-scale quantity: -log10 of the concentration expressed in molar.

Read off the recorded pIC50 for C=CC(=O)Nc1ccc(CN(C(=O)Nc2c(Cl)c(OC)cc(OC)c2Cl)c2cc(Nc3ccc(N4CCN(C)CC4)cc3)ncn2)cc1 8.52

---

target: Vascular endothelial growth factor receptor 1 (Homo sapiens, UniProt P17948)
measurementNotes: Inhibition of recombinant VEGFR1 (unknown origin) in the presence of [p33]-ATP
measurementLabel: pIC50
Note on units: pIC50 is unitless, being -log10 of a concentration expressed in mol/L.

Please indicate pIC50 recorded for Cn1cc(-c2ccc3c(c2)ncn3-c2cc(NS(=O)(=O)C3CC3)cc(-c3ccc(F)cc3F)c2)cn1 7.59

---

target: Epidermal growth factor receptor (Homo sapiens, UniProt P00533)
Sequence (P00533 whole entry): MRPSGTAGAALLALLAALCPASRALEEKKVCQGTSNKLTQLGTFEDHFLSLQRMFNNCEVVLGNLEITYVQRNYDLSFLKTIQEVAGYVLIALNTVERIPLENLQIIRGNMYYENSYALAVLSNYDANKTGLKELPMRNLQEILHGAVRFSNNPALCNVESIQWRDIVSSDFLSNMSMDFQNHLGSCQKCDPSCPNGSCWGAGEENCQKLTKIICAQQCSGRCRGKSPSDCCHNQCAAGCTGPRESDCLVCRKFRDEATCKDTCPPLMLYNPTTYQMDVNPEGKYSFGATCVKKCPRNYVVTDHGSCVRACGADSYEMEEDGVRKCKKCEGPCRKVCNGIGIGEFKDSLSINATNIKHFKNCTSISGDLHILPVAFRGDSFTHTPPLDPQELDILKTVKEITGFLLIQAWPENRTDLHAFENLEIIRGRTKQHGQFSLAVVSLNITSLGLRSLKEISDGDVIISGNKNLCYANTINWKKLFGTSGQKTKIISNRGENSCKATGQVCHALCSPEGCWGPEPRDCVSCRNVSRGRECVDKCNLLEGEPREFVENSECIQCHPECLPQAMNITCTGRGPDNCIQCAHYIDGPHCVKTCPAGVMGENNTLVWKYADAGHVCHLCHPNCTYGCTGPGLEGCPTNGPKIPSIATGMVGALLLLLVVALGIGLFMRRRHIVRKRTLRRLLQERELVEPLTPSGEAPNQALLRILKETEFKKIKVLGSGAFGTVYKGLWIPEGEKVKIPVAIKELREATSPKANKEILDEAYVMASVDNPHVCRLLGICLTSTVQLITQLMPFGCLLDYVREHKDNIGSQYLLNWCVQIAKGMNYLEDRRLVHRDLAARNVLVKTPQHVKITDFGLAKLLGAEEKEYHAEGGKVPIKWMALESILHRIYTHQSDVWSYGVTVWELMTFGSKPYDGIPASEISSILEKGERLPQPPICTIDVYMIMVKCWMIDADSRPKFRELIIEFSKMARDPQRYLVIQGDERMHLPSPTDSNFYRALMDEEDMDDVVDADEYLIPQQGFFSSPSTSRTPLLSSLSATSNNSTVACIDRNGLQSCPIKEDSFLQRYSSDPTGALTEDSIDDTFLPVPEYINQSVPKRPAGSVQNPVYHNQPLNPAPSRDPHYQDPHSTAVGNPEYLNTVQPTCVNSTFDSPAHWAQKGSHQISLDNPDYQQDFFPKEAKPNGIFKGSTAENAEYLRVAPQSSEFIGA
measurementNotes: Inhibition of EGFR (unknown origin) using biotin as substrate incubated for 1 hrs in the presence of ATP by HTRF assay
measurementLabel: pIC50
For clarity, pIC50 is expressed as the negative log10 of concentration in mol/L.

Check the records and state pIC50 for COc1cc2ncnc(Oc3ccc(NC(=O)Nc4cccc(C(F)(F)F)c4)c4ccccc34)c2cc1OC 7.06

---

target: Fibroblast growth factor receptor substrate 2 (Homo sapiens)
measurementNotes: Inhibition of FRS2 phosphorylation at Tyr196 residue in human NCI-H1581 cells incubated for 20 mins by electrochemiluminescence method
Format: cell-based
measurementLabel: IC50 (µM)
// return numeric value only (unit: µM, not printed)

Give recorded IC50. Cn1cc(-c2ccc3c(c2)ncn3-c2cc(NS(=O)(=O)C3CC3)cc(-c3ccc(F)cc3F)c2)cn1 0.093

---

target: Fibroblast growth factor receptor 3 (Homo sapiens, UniProt P22607)
Sequence (P22607 whole entry): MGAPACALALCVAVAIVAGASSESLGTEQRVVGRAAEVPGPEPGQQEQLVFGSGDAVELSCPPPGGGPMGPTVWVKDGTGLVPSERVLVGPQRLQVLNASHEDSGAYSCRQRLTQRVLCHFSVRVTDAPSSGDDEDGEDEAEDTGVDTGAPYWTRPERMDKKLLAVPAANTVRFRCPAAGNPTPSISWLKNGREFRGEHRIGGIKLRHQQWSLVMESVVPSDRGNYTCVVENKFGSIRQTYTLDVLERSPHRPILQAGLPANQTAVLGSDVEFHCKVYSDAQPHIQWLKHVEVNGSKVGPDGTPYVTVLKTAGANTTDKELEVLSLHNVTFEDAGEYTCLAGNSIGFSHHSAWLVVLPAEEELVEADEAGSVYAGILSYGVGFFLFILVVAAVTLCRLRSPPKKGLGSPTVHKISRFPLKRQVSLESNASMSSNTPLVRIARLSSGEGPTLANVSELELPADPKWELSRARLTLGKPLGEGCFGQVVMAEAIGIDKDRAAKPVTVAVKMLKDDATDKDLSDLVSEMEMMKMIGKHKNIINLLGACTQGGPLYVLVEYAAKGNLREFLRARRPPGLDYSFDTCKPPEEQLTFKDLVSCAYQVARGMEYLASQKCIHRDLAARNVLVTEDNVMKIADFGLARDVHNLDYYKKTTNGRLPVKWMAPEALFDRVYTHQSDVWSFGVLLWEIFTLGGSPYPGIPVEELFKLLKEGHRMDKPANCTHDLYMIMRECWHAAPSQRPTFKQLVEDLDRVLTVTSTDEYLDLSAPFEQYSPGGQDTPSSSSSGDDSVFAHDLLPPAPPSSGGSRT
measurementNotes: Inhibition of FGFR3 (unknown origin) by Z'-LYTE Kinase assay
measurementLabel: IC50
Please format your answer as a value with the unit trailing.

Report IC50, nothing else, for this compound: C=CC(=O)Nc1ccc(CN(C(=O)Nc2c(Cl)c(OC)cc(OC)c2Cl)c2cc(Nc3ccc(N4CCN(C)CC4)cc3)ncn2)cc1 31 nM

---

target: Receptor-type tyrosine-protein kinase FLT3 (Homo sapiens)
Sequence (P36888 whole entry): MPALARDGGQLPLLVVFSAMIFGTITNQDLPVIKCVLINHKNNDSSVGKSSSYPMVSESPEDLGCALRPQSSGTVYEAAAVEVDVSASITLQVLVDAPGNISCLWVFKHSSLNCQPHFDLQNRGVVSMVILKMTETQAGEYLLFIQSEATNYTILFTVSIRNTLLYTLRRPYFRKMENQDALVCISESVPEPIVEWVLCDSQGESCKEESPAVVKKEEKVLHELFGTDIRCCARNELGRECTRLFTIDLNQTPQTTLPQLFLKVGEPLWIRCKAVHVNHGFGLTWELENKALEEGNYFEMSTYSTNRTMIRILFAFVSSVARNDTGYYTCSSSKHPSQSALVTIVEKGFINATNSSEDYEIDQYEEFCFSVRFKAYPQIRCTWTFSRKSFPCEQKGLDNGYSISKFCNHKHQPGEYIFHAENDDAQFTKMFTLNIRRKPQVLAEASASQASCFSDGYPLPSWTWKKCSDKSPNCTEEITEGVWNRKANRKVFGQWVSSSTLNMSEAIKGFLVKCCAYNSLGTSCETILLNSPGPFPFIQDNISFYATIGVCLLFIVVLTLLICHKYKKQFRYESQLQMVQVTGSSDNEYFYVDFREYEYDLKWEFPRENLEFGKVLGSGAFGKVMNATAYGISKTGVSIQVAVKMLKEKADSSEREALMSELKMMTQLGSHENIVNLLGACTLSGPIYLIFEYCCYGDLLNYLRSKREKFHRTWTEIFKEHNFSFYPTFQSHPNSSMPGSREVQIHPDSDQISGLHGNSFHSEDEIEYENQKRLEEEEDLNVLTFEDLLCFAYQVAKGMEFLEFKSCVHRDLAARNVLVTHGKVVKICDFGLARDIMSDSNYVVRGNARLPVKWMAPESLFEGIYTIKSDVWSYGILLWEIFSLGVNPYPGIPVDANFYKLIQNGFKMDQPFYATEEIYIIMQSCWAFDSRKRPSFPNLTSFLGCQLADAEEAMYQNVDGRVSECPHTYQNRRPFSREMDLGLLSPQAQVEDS
measurementNotes: Inhibition of His tagged recombinant human FLT3 (564 to 958 residues) expressed in baculovirus expression system incubated for […] in the presence of ATP by Z'-LYTE kinase assay
measurementLabel: IC50 (nM)
Record the value in nM, omitting the unit from your answer.

Note down IC50 recorded for Cc1ccc(C(=O)Nc2ccc(CN3CCN(C)CC3)c(C(F)(F)F)c2)cc1C#Cc1cnc2[nH]ncc2c1 1.33

---

target: UniProtKB P22455
measurementNotes: Inhibition of FGFR4 (unknown origin) using biotin as substrate incubated for 1 hrs in the presence of ATP by HTRF assay
measurementLabel: pIC50
Schema: pIC50 number; meaning minus log10 of the concentration expressed in molar units.

Give recorded pIC50. COc1cc2ncnc(Oc3ccc(NC(=O)Nc4cccc(C(F)(F)F)c4)c4ccccc34)c2cc1OC 7.08

---

target: Platelet-derived growth factor receptor alpha (Homo sapiens, UniProt P16234)
measurementLabel: pIC50
Reminder that pIC50 is minus the log10 of a molar concentration.

For the molecule Cc1ccc(C(=O)Nc2ccc(CN3CCN(C)CC3)c(C(F)(F)F)c2)cc1C#Cc1cnc2[nH]ncc2c1 [OLVEREMBATINIB] , give its reported pIC50. 8.68

---

target: Fibroblast growth factor receptor 1 (Homo sapiens, UniProt P11362)
measurementNotes: Inhibition of N-terminal 6-His tagged recombinant FGFR1 Kinase domain (unknown origin) expressed in baculovirus expression system incubated for 30 mins in the presence of [33p]-ATP by scintillation counting analysis
measurementLabel: IC50 (nM)
Value expressed in nM; do not type the unit.

Please report the measured IC50 for O=C(O)CCc1c(/C=C2\C(=O)Nc3ccc(F)cc32)[nH]c2c1C(=O)CCC2 260

---

target: Vascular endothelial growth factor receptor 2 (Homo sapiens, UniProt P35968)
Sequence (P35968 whole entry): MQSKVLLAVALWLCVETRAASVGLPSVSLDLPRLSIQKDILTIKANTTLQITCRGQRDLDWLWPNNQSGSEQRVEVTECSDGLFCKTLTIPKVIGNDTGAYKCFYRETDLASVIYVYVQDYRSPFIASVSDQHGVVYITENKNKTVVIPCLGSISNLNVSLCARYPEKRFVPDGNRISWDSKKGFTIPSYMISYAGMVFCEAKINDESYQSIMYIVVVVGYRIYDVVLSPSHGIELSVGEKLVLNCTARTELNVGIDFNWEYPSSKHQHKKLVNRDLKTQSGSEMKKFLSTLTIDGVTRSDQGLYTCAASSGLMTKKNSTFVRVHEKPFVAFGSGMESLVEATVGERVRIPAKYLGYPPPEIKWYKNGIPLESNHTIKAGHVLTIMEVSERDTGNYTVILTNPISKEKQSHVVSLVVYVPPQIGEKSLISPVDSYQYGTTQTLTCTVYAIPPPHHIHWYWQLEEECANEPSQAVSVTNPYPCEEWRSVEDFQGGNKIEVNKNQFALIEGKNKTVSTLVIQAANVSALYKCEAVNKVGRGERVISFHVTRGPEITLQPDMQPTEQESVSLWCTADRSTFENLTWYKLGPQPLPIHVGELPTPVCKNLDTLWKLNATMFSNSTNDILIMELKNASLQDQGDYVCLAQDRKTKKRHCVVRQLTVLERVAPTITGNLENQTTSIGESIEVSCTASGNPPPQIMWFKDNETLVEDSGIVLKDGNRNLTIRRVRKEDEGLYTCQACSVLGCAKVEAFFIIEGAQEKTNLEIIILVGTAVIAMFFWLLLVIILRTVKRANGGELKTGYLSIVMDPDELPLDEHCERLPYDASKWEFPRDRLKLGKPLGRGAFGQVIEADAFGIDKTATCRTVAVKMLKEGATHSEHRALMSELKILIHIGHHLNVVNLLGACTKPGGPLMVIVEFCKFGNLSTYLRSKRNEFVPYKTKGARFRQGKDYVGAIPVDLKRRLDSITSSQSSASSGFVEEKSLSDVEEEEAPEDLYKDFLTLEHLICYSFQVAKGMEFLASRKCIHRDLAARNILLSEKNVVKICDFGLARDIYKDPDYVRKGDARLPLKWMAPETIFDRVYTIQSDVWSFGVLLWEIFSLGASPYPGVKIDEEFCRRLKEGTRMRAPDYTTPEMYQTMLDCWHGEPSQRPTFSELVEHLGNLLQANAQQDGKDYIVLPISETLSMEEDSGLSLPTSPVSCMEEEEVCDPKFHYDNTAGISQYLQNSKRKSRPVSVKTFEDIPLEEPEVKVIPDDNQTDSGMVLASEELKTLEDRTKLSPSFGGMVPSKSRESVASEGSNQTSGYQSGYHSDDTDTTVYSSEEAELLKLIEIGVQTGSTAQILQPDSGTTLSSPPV
measurementNotes: Inhibition of recombinant VEGFR2 (unknown origin) in the presence of [p33]-ATP
measurementLabel: IC50
Mention the unit after the number when you answer.

Fill in reported IC50 for this entry: Cn1cc(-c2ccc3c(c2)ncn3-c2cc(NS(=O)(=O)C3CC3)cc(-c3ccc(F)cc3F)c2)cn1 9 nM

---

target: UniProt:P22607
measurementNotes: Inhibition of recombinant FGFR3 (unknown origin) incubated for 60 mins by ELISA analysis
measurementLabel: IC50
Be sure to follow the number with its unit.

Fill: IC50 (UniProt:P22607) for this compound CNC(=O)c1cccc2cc(Oc3ccnc(NC(=O)c4ccc(N5CCN(CCO)CC5)cc4)c3)ccc12 6.9 nM
